Tested on: GB4
EXPERIMENT SUMMARY: qHTS profiling for inhibitors of Plasmodium falciparum proliferation (AID 504749); further: nearly all actives have a fitted effect of over 60% in size
CONDITION: P. falciparum in erythrocytes, SYBR Green DNA, 72 h; series mostly up to 28.7 µM
Records with an inconclusive call do not appear. The source made the active and inactive calls. The call rests on the fitted dose curve; in most records, active means well fitted inhibition curve with a large enough effect; inconclusive means small, poorly fitted or top-dose-only effect; inactive means flat fitted curve, though single readings scatter.
Labels: 1 (active), 0 (inactive)

INSERT INTO results (molecule, discrete_label) VALUES
  ('N#CC(c1ccc(Cl)cc1)c1c(Cl)cc(-n2ncc(=O)[nH]c2=O)cc1Cl (centres undefined)', 0),
  ('C=C1c2cccc(O)c2C(O)=C2C(=O)[C@@]3(O)C(O)=C(C(N)=O)C(=O)[C@@H](N(C)C)[C@@H]3[C@@H](O)[C@H]12', 0),
  ('COc1cc2c(cc1OC)CC(=O)N(CCCN(C)C[C@H]1Cc3cc(OC)c(OC)cc31)CC2', 0),
  ('NS(=O)(=O)c1cc(Cl)c(Cl)c(S(N)(=O)=O)c1', 0),
  ('CC(C)CN(C[C@@H](O)[C@H](Cc1ccccc1)NC(=O)O[C@H]1CO[C@H]2OCC[C@H]21)S(=O)(=O)c1ccc(N)cc1', 0),
  ('O=C1C(CCC(O)c2ccc(F)cc2)C(c2ccc(O)cc2)N1c1ccc(F)cc1 (centres undefined)', 0),
  ('N#Cc1c(N(CC(=O)O)CC(=O)O)sc(C(=O)O)c1CC(=O)O', 0),
  ('O=C(O)c1nc(=O)[nH]c(=O)[nH]1', 0),
  ('Fc1ccc(C(c2ccc(F)cc2)N2CCN(CC=Cc3ccccc3)CC2)cc1', 1);
